Target: CYP3A4 (CYP3A) (Homo sapiens, UniProt P08684);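 note: inhibition of CYP3A-mediated 1-hydroxymidazolam formation after 10 min incubation with NADPH, quantified by HPLC MS relative to metabolite produced without test compound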
Sequence (P08684 2-503): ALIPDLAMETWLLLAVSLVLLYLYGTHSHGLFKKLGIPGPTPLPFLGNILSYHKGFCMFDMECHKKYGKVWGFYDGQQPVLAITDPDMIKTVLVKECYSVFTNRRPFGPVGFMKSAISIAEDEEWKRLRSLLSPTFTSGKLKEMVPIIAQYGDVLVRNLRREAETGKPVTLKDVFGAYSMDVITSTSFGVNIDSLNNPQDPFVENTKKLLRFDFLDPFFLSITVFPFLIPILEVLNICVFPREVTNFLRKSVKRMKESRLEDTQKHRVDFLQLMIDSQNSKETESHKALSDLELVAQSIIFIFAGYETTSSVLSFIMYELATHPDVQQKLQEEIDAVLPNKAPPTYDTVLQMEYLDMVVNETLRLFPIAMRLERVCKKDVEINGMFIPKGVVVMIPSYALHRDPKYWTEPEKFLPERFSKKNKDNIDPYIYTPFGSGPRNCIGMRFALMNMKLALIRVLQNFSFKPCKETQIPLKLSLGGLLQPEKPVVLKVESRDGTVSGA
Assay: in vitro
Conditions: microsomes, pH 7.4
pIC50: −log10 of the molar value.

COMPOUND	SUBJECT_OF_TEST	pIC50
COCC(=O)N[C@@H](Cc1ccncc1)[C@H](O)CN[C@H]1CC2(CCC2)Oc2c(-c3ccncc3)cc(CC(C)C)cc21 [Example 628]	CYP3A4 (CYP3A) (Homo sapiens, UniProt P08684)	7.00
CC#Cc1ccc2c(c1)[C@@H](NC[C@@H](O)[C@H](Cc1cc(F)cc(-c3nccs3)c1)NC(=O)COC)CC1(CCC1)O2 [compound 806]	CYP3A4 (CYP3A) (Homo sapiens, UniProt P08684)	6.70
CC(=O)N[C@@H](Cc1ccc(F)cc1)[C@H](O)CN[C@H]1CC2(CCC2)Oc2ncc(C(F)(F)C(C)(C)C)cc21 [compound 570]	CYP3A4 (CYP3A) (Homo sapiens, UniProt P08684)	6.10
